Exercise: state measured pIC50 for each of the compounds provided.
- Tested on: THP-1 cells
- Assay comment: TNFα generation assay
- Type: cell-based, human
- Condition parameters: Homo sapiens, THP-1, THP-1 cells; Table 22; read-out: IC50 in TNFα generation assay
pIC50: −log10 of the molar value.

**Q:** Quick one: pIC50 of C[C@H](N)CNc1nc(Nc2cnc3ccccc3c2)c(C(N)=O)cc1F [Example 006-092] ?
**A:** > 7.19

**Q:** // repeat for Cc1nn(C2CC2)c2ccc(Nc3nc(N[C@@H]4CCCC[C@@H]4N)c(F)cc3C(N)=O)cc12 [Example 006-477] and report
**A:** 6.70 to 6.89

**Q:** // repeat for CCOc1ncc(Nc2nc(N[C@@H]3CCCC[C@@H]3N)c(F)cc2C(N)=O)cc1F [Example 006-572] and report
**A:** 6.70 to 6.89

**Q:** // repeat for CCCC[C@H](CN)Nc1nc(Nc2ccc3c(cnn3CCOC)c2)c(C(N)=O)cc1F [Example 006-338] and report
**A:** 6.89 to 7.19

**Q:** // repeat for CCCC[C@@H](Nc1nc(Nc2ccc3c(cnn3C)c2)c(C(N)=O)cc1F)[C@H](C)N [Example 006-387] and report
**A:** 6.89 to 7.19

**Q:** // repeat for COc1cccc(-c2cncc(Nc3nc(N[C@@H]4CCCC[C@@H]4N)c(F)cc3C(N)=O)c2)c1F (relative stereo) [Example 004-197] and report
**A:** 6.89 to 7.19

**Q:** // repeat for Cn1ccc2c(Nc3nc(N[C@H](Cc4ccccc4)C(N)=O)c(F)cc3C(N)=O)ccnc21 [Example 004-044] and report
**A:** 6.70 to 6.89

**Q:** // repeat for CCCc1nn(CC)c2ccc(Nc3nc(N[C@@H]4CCCC[C@@H]4N)c(F)cc3C(N)=O)cc12 [Example 006-457] and report
**A:** 6.70 to 6.89

**Q:** // repeat for CCC[C@@H](Nc1nc(Nc2cncc(-n3nccn3)c2)c(C(N)=O)cc1F)[C@H](C)N [Example 006-298] and report
**A:** > 7.19

**Q:** // repeat for COCCOc1ncc(Nc2nc(N[C@@H]3CCCC[C@@H]3N)c(F)cc2C(N)=O)cc1-n1cccn1 [Example 006-575] and report
**A:** 6.70 to 6.89

**Q:** // repeat for CCCC[C@@H](Nc1nc(Nc2ccc3c(cnn3CCOC)c2)c(C(N)=O)cc1F)[C@H](C)N [Example 006-389] and report
**A:** 6.89 to 7.19

**Q:** // repeat for CNc1cc(Nc2nc(NC3CCCCC3N)c(F)cc2C(N)=O)ccn1 (stereo not drawn) [Example 002-058] and report
**A:** 6.89 to 7.19

**Q:** // repeat for CC(C)C[C@H](CN)Nc1nc(Nc2cnc3c(N)cccc3c2)c(C(N)=O)cc1F [Example 004-196] and report
**A:** 6.70 to 6.89

**Q:** // repeat for NC(=O)c1cc(F)c(N[C@@H]2CCCC[C@@H]2N)nc1Nc1cnc2cc(N3CCOCC3)ccc2c1 (relative stereo) [Example 004-123] and report
**A:** 6.70 to 6.89

**Q:** // repeat for COc1ccc2cc(Nc3nc(N[C@H](CC4CC4)[C@H](C)N)c(F)cc3C(N)=O)cnc2c1 [Example 006-346] and report
**A:** 6.70 to 6.89

Values compiled from patent US8895585B2.
